Test system: Wnt signaling
Experiment: Wnt assay (Super TOPflash/Wnt3a dual-luciferase reporter in 293T cells)
Format: cell-based
Conditions: Homo sapiens, HEK-293T, TOPflash luciferase normalized to renilla
Quick list: IC50 per entry.
Number in nM, nothing else.

{"MOLECULE": "O=C1[C@@H]2[C@@H]3CC[C@@H](C3)[C@@H]2C(=O)N1[C@H]1CC[C@H](C(=O)Nc2ccccn2)CC1", "TEST RESULT": 86}
{"MOLECULE": "COC(=O)c1ccccc1NC(=O)[C@H]1CC[C@H](N2C(=O)[C@@H]3[C@@H]4CC[C@@H](C4)[C@@H]3C2=O)CC1", "TEST RESULT": 67}
{"MOLECULE": "CC(=O)c1ccncc1NC(=O)[C@H]1CC[C@H](N2C(=O)[C@@H]3[C@@H]4CC[C@@H](C4)[C@@H]3C2=O)CC1", "TEST RESULT": 287}
{"MOLECULE": "O=C1[C@@H]2[C@@H]3CC[C@@H](C3)[C@@H]2C(=O)N1[C@H]1CC[C@H](C(=O)Nc2ccnc(Cl)c2)CC1", "TEST RESULT": 374}
{"MOLECULE": "CC(=O)c1ccccc1NC(=O)C1CCC(N2C(=O)[C@@H]3[C@@H]4CC[C@@H](C4)[C@@H]3C2=O)CC1 (stereo partly drawn)", "TEST RESULT": 23}

[in] State its IC50 for this molecule: O=C1[C@@H]2[C@@H]3CC[C@@H](C3)[C@@H]2C(=O)N1[C@H]1CC[C@H](C(=O)Nc2ccc(C(F)(F)F)nc2)CC1
[out] 870

----------
System: Wnt signaling
Assay: Wnt assay (Super TOPflash/Wnt3a dual-luciferase reporter in 293T cells)
Type: cell-based
Details: Homo sapiens, HEK-293T, TOPflash luciferase normalized to renilla
MEASUREMENT KIND: pIC50
Expect pIC50 as a plain number equal to -log10 of the molar concentration.

The cases that follow already have their pIC50 on record.
{"QUERY SMILES": "CC(=O)c1ccccc1NC(=O)[C@H]1CC[C@H](N2C(=O)[C@@H]3[C@@H]4CC[C@@H](C4)[C@@H]3C2=O)CC1", "pIC50": 7.85}
{"QUERY SMILES": "O=C1[C@@H]2[C@@H]3CC[C@@H](C3)[C@@H]2C(=O)N1[C@H]1CC[C@H](C(=O)Nc2cccnc2Cl)CC1", "pIC50": 6.78}
{"QUERY SMILES": "O=C1c2ccccc2-c2cccc(NC(=O)[C@H]3CC[C@H](N4C(=O)[C@@H]5[C@@H]6CC[C@@H](C6)[C@@H]5C4=O)CC3)c21", "pIC50": 6.71}
{"QUERY SMILES": "Cc1ccc(NC(=O)[C@H]2CC[C@H](N3C(=O)[C@@H]4[C@@H]5CC[C@@H](C5)[C@@H]4C3=O)CC2)cn1", "pIC50": 5.86}
{"QUERY SMILES": "O=C1[C@@H]2[C@@H]3CC[C@@H](C3)[C@@H]2C(=O)N1[C@H]1CC[C@H](C(=O)Nc2cccnc2)CC1", "pIC50": 7.38}

We now examine a further molecule.
[in] Answer with reported pIC50 of COc1ccc(NC(=O)[C@H]2CC[C@H](N3C(=O)[C@@H]4[C@@H]5CC[C@@H](C5)[C@@H]4C3=O)CC2)cn1
[out] 6.46
